Entries and their measured growth follow.
Tested on: UACC-257 melanoma
experiment_notes: NCI-60 one-dose screen, 48 h (100 = growth as untreated, 0 = no growth, -100 = all killed)
condition_notes: 10 µM unless noted
Compounds without any hit were thinned out: in the full panel of roughly 83,000, 20% have a hit. Active and inactive are the calls of the source. The calls were made as follows: active = growth percent below 10; inactive = the rest.

Recorded results for 3 molecules are shown here.
In: Any idea what growth was measured for Cn1cc(-c2csc(-c3cn(CCOC(N)=O)c4ccccc34)n2)c2cccnc21 ?
Out: 88% (inactive)

In: How about C[N+]1=C(/C=C\C=C\c2ccccc2)C(C)(C)c2ccccc21 ?
Out: 8.91% (active)

In: Consider next the molecule Nc1ccc(-c2ccc(N)c(Br)c2)cc1Br in the same way.
Out: 78.1% (inactive)

Others:
In: Find the recorded growth belonging to CCOC(=O)C1=C(C)NC(=O)NC1c1c(Cl)n(-c2ccccc2)c2ccccc12 (centres undefined) and report it.
Out: 88.3% (inactive)

* * *

System: SK-MEL-28 melanoma
experiment_notes: NCI-60 one-dose screen, 48 h (100 = growth as untreated, 0 = no growth, -100 = all killed)
condition_notes: 10 µM unless noted
The panel holds about 83,000 compounds, 20% with a hit somewhere; the sample as a whole holds those more often. The source made the active and inactive calls. Rule for the calls: active = growth percent below 10; inactive = the rest.
Documented growth across a set of compounds

In: Please state recorded growth (tested on SK-MEL-28 melanoma) of Cc1[nH]c(C(=O)Nc2nc3ccc(NC(=O)CCN)cc3s2)c(Cl)c1Cl
Out: 97.8% (inactive)

In: Further, for OB(O)c1ccsc1-c1nc2ccc3[nH]ncc3c2c2c1CCCC2 ?
Out: 72.8% (inactive)

In: Moving on to O=C1c2cc3c(cc2-c2c1c1ccc(Cl)cc1c(=O)n2CCCn1ccnc1)OCO3
Out: 15.5% (inactive)

In: What do you have for COc1cc2ncnc(Nc3ccc(F)c(Cl)c3)c2cc1OCC(=O)N1CCCCC1 ?
Out: 99.2% (inactive)

In: Next record, please: COc1ccc(-c2nn3c(-c4cc(F)c(Cl)cc4Cl)nnc3s2)cc1
Out: 36.7% (inactive)

***
In: Any idea what growth came out for CCCCCCCCCCCCC[C@H](O)C[C@H](O)[C@H](C)N on SK-MEL-28 melanoma?
Out: 115% [1.25 µM] (inactive)

In: Then COc1ccc2c(c1)c(-c1nc(-c3c[nH]c4c(Cl)nccc34)cs1)cn2C ?
Out: 105% (inactive)

In: How about C/C=C(/C)C(=O)O[C@@H]1CC(C)(C)CC2C34OC(=O)[C@@]21CC[C@@]3(C)[C@]1(C)CCC2C(C)(C)C(=O)CC[C@]2(C)C1C[C@@H]4Cl (some centres undefined) ?
Out: 102% (inactive)

In: Likewise for COc1ccc(C/C(C)=C(/c2ccc(OCCN3CCCCCC3)cc2)c2ccc(OC(=O)c3ccccc3)cc2)cc1 ?
Out: 106% (inactive)

* * *

Test system: NCI-H522 lung
experiment_notes: NCI-60 one-dose screen, 48 h (100 = growth as untreated, 0 = no growth, -100 = all killed)
condition_notes: 10 µM unless noted
This is part of a sample that, as a whole, favours compounds with a hit. Of some 83,000 tested, about 20% had one in any assay.
readout_name: growth (%)
Entry rule: numbers only, all in %.

In: What measured growth is associated with O=C(Nc1ccc(F)cc1)c1cc2cc(Nc3nc(-c4ccccc4)nc4ccccc34)ccc2oc1=O on NCI-H522 lung?
Out: 97.6

***
In: Give growth (NCI-H522 lung) of the following molecule: CNC(=O)c1cc(Oc2ccc3nc(NC(=O)Nc4ccc(C(F)(F)F)cc4)sc3c2)ccn1
Out: 42.4

In: Let us now turn to C=C1C(=O)O[C@H]2[C@H]1CC/C(COC(=O)NCCCCNC(=O)OC/C1=C/CC[C@@]3(C)O[C@H]3[C@H]3OC(=O)C(=C)[C@@H]3CC1)=C\CC[C@@]1(C)O[C@@H]21
Out: -61.4

In: Then this molecule: Cc1cc(N2CCCCC2)nc(NCc2cc(Nc3ccnc4cc(Cl)ccc34)ccc2F)n1
Out: -57.9

In: What would you report for COc1cc(/C=C/C(=O)c2ccc(NC(=O)CSc3nnc(-c4cc(-c5ccccc5)nc5ccccc45)n3-c3ccccc3)cc2)cc(OC)c1OC ?
Out: 70.7

In: Repeat with CON1CCC[C@]2(C)[C@H]3CC[C@@H]4[C@H]5[C@@H](O)C(C)(C)CC[C@]5(CO)CC[C@@]4(C)[C@]3(C)CC[C@H]2C1(C)C
Out: 84

In: Also CCN(CC)CCOc1ccccc1C ?
Out: 92.6

In: Repeat with Nc1nc2ccccc2c2c(=O)c3ccc(Cl)cc3sc12
Out: 94.3

* * *

Listing of entries alongside the reported growth.
System: HOP-92 NSCLC
experiment_notes: NCI-60 one-dose screen, 48 h (100 = growth as untreated, 0 = no growth, -100 = all killed)
condition_notes: 10 µM unless noted
Compounds without any hit were thinned out: in the full panel of roughly 83,000, 20% have a hit.
Report the value in % with no unit label.

In: Form field - read-out: growth; system: HOP-92 NSCLC; submitted item: CC(=NCc1ccccc1)c1ccc(O)cc1O
Out: 76.2

In: Query COc1ccc(/C=N/C2=C(C#N)C(c3ccccc3)c3c(ccc4ccccc34)O2)cc1 (stereo not drawn) next
Out: 53.9

In: Follow-up entry: Cc1nnc(NS(=O)(=O)c2ccc(N=Nc3ccc(N)nc3N)cc2)s1
Out: 95.5

***
In: Lab request: please report growth under test system HOP-92 NSCLC for CONC1=Nc2cc(NC(N)=NCc3ccccc3)c(N(C)C3CCCCC3)cc2OC1
Out: 35.4

In: Input O=C1CCc2c(sc3[nH]c(=S)n(Cc4ccc(Cl)cc4)c(=O)c23)C1
Out: -44.2

In: Field entry: CN1CCN(C(=O)OCc2nc3c(N4CCOCC4)nc(Cl)nc3n2C)CC1
Out: -32

In: And COc1ccc(-c2cc(-c3cc(OC)c(OC)c(OC)c3)c(C#N)c(=O)n2CCCCC(=O)O)cc1 ?
Out: 93.6

* * *

Test system: K-562 leukemia
experiment_notes: NCI-60 one-dose screen, 48 h
condition_notes: 10 µM unless noted
Compounds without any hit were thinned out: in the full panel of roughly 83,000, 20% have a hit. The source made the active and inactive calls. Rule for the calls: active = growth percent below 10; inactive = the rest.
Pick one and only one: 1 (active), 0 (inactive)

Past entries and their recorded results:
In: Would you mind telling me which call this test gave O=C(NNc1ccccc1)c1ncc[nH]1 ?
Out: 1

In: Next entry: CCCCCCNC(=O)Oc1ccc(/C(=C(/CC)Cc2ccccc2)c2ccc(OCCCN(C)C)cc2)cc1
Out: 1

In: Quick one: COc1ccc2c(c1)c(-c1nc(-c3c[nH]c4c(Cl)nccc34)cs1)cn2C
Out: 0

Next:
In: # outcome recorded in this test, key = CN1Cn2c(ccc2C(F)(F)F)C(=O)CS1(=O)=O
Out: 0

In: Lookup COc1ccc(/C=N\Nc2nc(SCC(C)C)nc(-c3ccc(OC)cc3)c2C#N)cc1
Out: 0

* * *

System: RXF 393 renal
experiment_notes: NCI-60 one-dose screen, 48 h (100 = growth as untreated, 0 = no growth, -100 = all killed)
condition_notes: 10 µM unless noted
About 83,000 compounds went through this panel and 20% of them were active in at least one assay; those are over-represented in the sample as a whole. Activity calls are given as the source filed them. The calls were made as follows: active = growth percent below 10; inactive = the rest.
The entries below come with measured growth values attached.

Check out these entries, answers already filled in.
In: Any idea what its growth is? The molecule is Cn1cc(-c2csc(-c3c[nH]c4ccc(F)cc34)n2)c2cnccc21
Out: -90.8% (active)

In: Also check CC1(C)C(N)=Nc2cc(OCCCN3Cc4ccc(OCCc5cn(CC(=O)N6CCC(CCN7CCCC7)CC6)nn5)cc4C3)c(OCC3CC3)cc21
Out: 113% (inactive)

In: Moving on to the next molecule: N=C(N)c1ccc(-c2ccc(-c3ccc(Cl)c(Cl)c3)s2)cc1
Out: 77.9% (inactive)

***
In: What growth value was documented for this molecule, COc1ccc(N2CCN(S(=O)(=O)c3oc(-c4ccccc4)nc3C#N)CC2)cc1 ?
Out: 66.4% (inactive)

In: Moving on to the next molecule: O=C(Nc1ccc(F)cc1)c1cc2cc(Nc3nc(-c4ccccc4)nc4ccccc34)ccc2oc1=O
Out: 115% (inactive)

In: Subsequent entry: C=C1C(=O)O[C@@H]2[C@H]3[C@H](COC(C)=O)[C@@H](OC(C)=O)C[C@H]3C(=C)[C@@H](O)C[C@@H]12
Out: 99.5% (inactive)

In: Moving on to COc1ccc(Nc2nn3c(SCC(=O)c4ccc(C)cc4)nnc3s2)cc1
Out: 97.1% (inactive)

* * *

Tested on: MDA-MB-231 breast
experiment_notes: NCI-60 one-dose screen, 48 h (100 = growth as untreated, 0 = no growth, -100 = all killed)
condition_notes: 10 µM unless noted
About 83,000 compounds went through this panel and 20% of them were active in at least one assay; those are over-represented in the sample as a whole.
readout_name: growth (%)
Hi! Could you send only the number? It should be in %, unit omitted.

Study these solved cases before continuing.
In: Value lookup for growth; key = O=C1CCc2c(sc3[nH]c(=S)n(Cc4ccc(Cl)cc4)c(=O)c23)C1
Out: -24.7

In: Field entry: O=C(Nc1ccc2ccccc2c1)c1cc2ccccc2cc1O
Out: 104

Then there is this compound:
In: Fill blank: measured growth of the compound O=C(CN1C(=O)S/C(=C\C(Cl)=C\c2ccccc2)C1=O)NCCCn1ccnc1 is ____.
Out: 21.5

meta.source: PubChem BioAssay (NCI)
